test system: SK-MEL-5 melanoma; experiment: NCI tumour cell line growth inhibition, 48 h
endpoint.name: TGI

| compound | TGI |
| --- | --- |
| O=P1(Oc2ccc(Cl)cc2)OCCS1 (configuration not stated) | > 100 µM |

Lab note: next compound to report on.
Request: Given the entry `N#Cc1c(-c2ccccc2)cc(-c2ccccc2)n(CCCCC(=O)NO)c1=O` , report its measured TGI.
Response: 3.59 µM

* * *

test system: ACHN renal; assay: NCI tumour cell line growth inhibition, 48 h
In this section, each of the molecules is paired with its reported TGI.

# count of solved cases: 3
| molecule | tested.system | endpoint.name | result |
| --- | --- | --- | --- |
| CCCN(CCC)CCCNC(=O)c1cc2c(-c3ccc(OC)c(OC)c3)nn(C)c2s1 | ACHN renal | TGI | 39.5 µM |
| O=C(OCC12CC3CC(CC(C3)C1)C2)c1ccc(NCc2cc(O)ccc2O)cc1 | ACHN renal | TGI | 7.04 µM |
| NCC1OC(OC2C(CO)OC(OC3C(O)C(N)CC(N)C3OC3OC(CO)C(O)C(O)C3N)C2O)C(N)C(O)C1O (stereo not drawn) | ACHN renal | TGI | > 50 µg/mL |

// moving on: another record for TGI
Request: Quick check: TGI on ACHN renal, item `Cc1ccc(/C(=C/C=C(C#N)C#N)Sc2cc(Cl)ccc2Cl)cc1` ?
Response: 10 µM

* * *

tested on: HS 578T breast; experiment: NCI tumour cell line growth inhibition, 48 h; in the data active = GI50 below about 0.43 µM; inactive = the rest
Returns: one label drawn from label 1 = active, label 0 = inactive

As a guide, the following entries are already answered.
| smiles.code | assigned.class |
| --- | --- |
| Nc1ccccc1NC(=O)c1ccc(CN2CCC/C(=C\c3cccc(Cl)c3)C2=O)cc1 | label 1 |
| C#CCNC(=O)CC[C@]1(C)[C@H]2CC[C@@H]3[C@@H]([C@@](C)(O)CCC=C(C)C)CC[C@@]3(C)[C@]2(C)CC[C@H]1C(=C)C | label 0 |
| COc1ccc(Cc2cnc(NC(=O)c3sc4ccccc4c3Cl)s2)cc1 | label 1 |
| CC[CH2][Sn]([Cl])([Cl])[CH2]CC | label 0 |
| O=C1/C(=C\c2coc3ccccc3c2=O)c2ccccc2N1c1c(Cl)cccc1Cl | label 0 |

Request: # lookup: test call for `C/C(=C\CCc1ccoc1)CC/C=C(\C)CCCN1CCC(CO)CC1`
Response: label 0

* * *

test system: 786-0 renal; assay: NCI tumour cell line growth inhibition, 48 h
endpoint.name: GI50

Request: Return reported GI50; argument: `Clc1ccc(-c2nn3ncccc3c2-c2ccnc(Nc3ccccc3)n2)cc1`
Response: 8.2 µM

Request: What about `CC1=C(/C=C/C(C)=C/C=C/C(C)=C/C(=O)Nc2ccc(O)cc2)C(C)(C)CCC1` ?
Response: 1.72 µM

Request: Another compound to look at: OC(COc1cccc2ccccc12)CN1CCN(c2ccccc2)CC1 (stereo not drawn)
Response: 17.4 µM

* * *

test system: MALME-3M melanoma; experiment: NCI tumour cell line growth inhibition, 48 h
endpoint.name: TGI

Here are 10 compounds together with their reported answers.
| compound | result |
| --- | --- |
| O=C1Nc2ccccc2Nc2nc3cccccc-3c21 | > 100 µM |
| O=c1cc(-c2ccccc2)oc2ccc(Oc3nnnn3-c3ccccc3)cc12 | > 100 µM |
| COc1ccc2c(=O)c3cc([N+](=O)[O-])ccc3n(C)c2c1 | > 100 µM |
| O=C(Nc1ccccc1C(=O)O)/C(=C/c1ccccc1)NC(=O)c1ccccc1 | > 100 µM |
| O=S1(=O)CS(=O)(=O)OCCCO1 | > 100 µM |
| C#COc1cccc(Nc2ncnc3ncc(NC(=O)CCl)cc23)c1 | > 38 µM |
| CC(/C=C/c1ccc([N+](=O)[O-])o1)=N/N1CC(CN2CCOCC2)OC1=O (stereo not drawn) | 41.3 µM |
| CCc1c(Cl)nc(Cl)nc1Cl | 0.718 µM |
| COc1ccccc1S(=O)Nc1ccccc1 (stereo not drawn) | > 100 µM |
| O=C(O)CCC1(Br)CCCCC(Br)C1=O (stereo not drawn) | > 100 µM |

# input for lookup
Request: Tell me reported TGI for `O=c1cc(CC(O)(C(F)(F)Cl)C(F)(F)Cl)[nH]n1-c1ccccc1` , tested with MALME-3M melanoma.
Response: > 100 µM

* * *

# TGI listing for each entry below
tested on: DU-145 prostate; experiment: NCI tumour cell line growth inhibition, 48 h

Some entries whose results are on file:
| molecule | TGI |
| --- | --- |
| COc1ccc(-c2nn(-c3cccc(NC(=O)Nc4cc(C(F)(F)F)cc(C(F)(F)F)c4)c3)cc2-c2ccncc2)cc1Cl | 9.76 µM |
| Cc1cc2c(cc1C)[n+](=O)c(N1CCN(c3ccc([N+](=O)[O-])cc3)CC1)c(C#N)n2[O-] | > 100 µM |
| CC1OC(OC2CC(O)C3(CO)C4C(O)CC5(C)C(C6=CC(=O)OC6)CCC5(O)C4CCC3(O)C2)C(O)C(O)C1O (configuration not stated) | < 0.0152 µM |
| O=C(Nc1ccccc1C(=O)O)/C(=C/c1ccccc1)NC(=O)c1ccccc1 | > 100 µM |
| CCCCNC(=O)Nc1c(C(N)=O)c2n(c1C(=O)OCC)CCCCC2 | > 100 µM |

Request: Request the reported TGI associated with `N#Cc1c(NC(=O)CN2CCOCC2)sc2c1CCCC2`
Response: > 25 µM

* * *

Let's look at some compounds and their measured TGI.
test system: DU-145 prostate; test: NCI tumour cell line growth inhibition, 48 h

Study these solved cases before continuing.
| compound | endpoint.name | result |
| --- | --- | --- |
| COc1ccc(N[C@H](CS(=O)c2ccc(C)cc2)C(F)(F)C(F)(F)F)cc1 (stereo partly specified) | TGI | > 100 µM |
| CCCCCC(=O)OCC1(CO)C/C(=C\CC(C(C)C)C(C)C)C(=O)O1 (stereo unspecified) | TGI | > 100 µM |
| CCN(CC)CCCC(Nc1c2ccc(Cl)cc2nc2ccc(OC)cc12)c1ccc(F)cc1 (stereo unspecified) | TGI | 10.4 µM |
| CCc1c(Cl)nc(Cl)nc1Cl | TGI | 6.35 µM |
| CCN1CC2=C(NC(=S)NC2c2cc(OC)c(OC)c(OC)c2)/C(=C/c2cc(OC)c(OC)c(OC)c2)C1 (stereo unspecified) | TGI | > 100 µM |
| C=C1CCC2C3(C)COC(c4ccc(SC)cc4)OC3CCC2(C)C1C/C=C1/C(=O)OCC1O (stereo unspecified) | TGI | 23.7 µM |

Request: GET /values?readout=TGI&item= COc1ccccc1S(=O)Nc1ccccc1 (stereo unspecified)
Response: > 100 µM

Request: Follow-up item: NC(=O)C(NC=O)c1ccccc1 (stereo unspecified)
Response: > 100 µM

Request: Same for COP1(=O)NCc2ncccc2O1 (stereo unspecified)
Response: > 100 µM

Request: Another compound: COC(=O)C(Cc1ccccc1I)C1=CCC2(CC1)OCCO2 (stereo unspecified)
Response: > 100 µM

Request: Here is the next compound: `CC(=O)OC[C@]12CC[C@@H]([C@@H](C)C(N)=O)[C@@H]1[C@H]1CC[C@@H]3[C@@]4(C)CC[C@H](OC(C)=O)C(C)(C)[C@@H]4CC[C@@]3(C)[C@]1(C)CC2`
Response: 23.3 µM

* * *

system: OVCAR-3 ovarian; assay: NCI tumour cell line growth inhibition, 48 h
Outcome: met for TGI of at least 10 µM; not met for anything lower.

| molecule | tested.system | assigned.class |
| --- | --- | --- |
| N=C(N)n1[nH]c2c(c1=O)CCCC2 | OVCAR-3 ovarian | met |
| CC1=C([Se]CC(OC(=O)[C@@H](CO)NC(=O)OC(C)(C)C)C(=O)NC(C)(C)C)C(=O)c2ccccc2C1=O (stereo not given in full) | OVCAR-3 ovarian | not met |
| OCC1OC(n2nc(-c3ccccc3)nc2-c2cnccn2)C(O)C1O (stereo not given) | OVCAR-3 ovarian | met |
| O=C1/C(=C\c2coc3ccccc3c2=O)c2ccccc2N1c1c(Cl)cccc1Cl | OVCAR-3 ovarian | met |
| CC(C)[Si](OC1=C(C(=O)N(C)c2ccccc2Cl)CCC1)(C(C)C)C(C)C | OVCAR-3 ovarian | met |
| CC(C)=CCc1c(C)cc2cc3c(c(O)c2c1O)C(O)=CC(=O)C3(CC=C(C)C)C/C=C(\C)CO (stereo not given) | OVCAR-3 ovarian | met |

Request: # bool: TGI of COC(=O)C1C2C=CC(C2)N1S(=O)(=O)c1ccccc1 (stereo not given) >= 10 µM
Response: met

Request: `C=C1C(=O)O[C@@H]2C[C@@H]1CC[C@@]1(C)O[C@@H]1CC[C@@]1(C)O[C@@H]1CC[C@@]2(C)O` , same question.
Response: met

Request: Field entry: `CNc1ccc(-c2cc(=O)oc3ccc(Cl)cc23)cc1`
Response: not met

Request: `COc1cc2c3c(n(C)c(=O)c2cc1OC)-c1cc2c(cc1/C3=C\CCCBr)OCO2`
Response: met
